# ASSAY REMARKS: thallium flux activation in parental CHO cells, counter-screen for KCNQ1 potentiator project (AID 493006);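 on activation: fluorescence ratio of max minus min over baseline after K+ and Tl+ depolarization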
# CONDITIONS: parental CHO-K1 cells, FluxOR thallium flux, at 10 µM
Activity calls are given as the source filed them.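 How the source made its calls: active means duplicate-averaged activation above buffer control mean plus 5 SD of those controls; inactive means the rest.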
Outcome codes: Yes (active), No (inactive)

[[record]]
compound = "CC(=O)Nc1nc2c(F)cccc2s1"
classification = "No"

[[record]]
compound = "O=c1c2cc(F)ccc2[nH]c(=S)n1Cc1ccc(F)cc1"
classification = "No"

[[record]]
compound = "CCOC(=O)c1sc(N2N=C(C)C(N=Nc3cccc(C)c3)C2=O)nc1C (centres undefined)"
classification = "No"

[[record]]
compound = "CC(=O)c1c(N2CCOCC2)[nH]c(-c2ccccc2)nc1=S"
classification = "Yes"

[[record]]
compound = "O=C(c1ccc(-c2ccccc2)cc1)N1CCCC1"
classification = "Yes"

[[record]]
compound = "CC(=O)NC(C1C(=O)CC(C)(C)CC1=O)(C(F)(F)F)C(F)(F)F"
classification = "No"

[[record]]
compound = "CCOC(=O)c1[nH]c2cc(OC)c(OC)cc2c1NC(=O)CN(C)C1CCCCC1"
classification = "No"

[[record]]
compound = "CSC(C(=O)c1cc2ccccc2o1)c1ccccc1 (centres undefined)"
classification = "No"

[[record]]
compound = "O=C(NCc1cccc(Cl)c1)c1cccc(OC2CCN(C(=O)C3CC3)CC2)c1"
classification = "No"

[[record]]
compound = "O=C(NC(=S)Nc1ccccc1Cl)c1csnn1"
classification = "Yes"

[[record]]
compound = "O=C(CCC(=O)c1ccc(F)cc1)Nc1cc(Cl)cc(Cl)c1"
classification = "No"

[[record]]
compound = "C=CCNC(=S)Nc1nc2c(cc1C(=O)OCC)CCCC2"
classification = "No"

[[record]]
compound = "COc1ccc(/C=C2/SC(=S)N(NS(=O)(=O)c3ccccc3)C2=O)cc1"
classification = "Yes"

[[record]]
compound = "NC(=O)CN1C(=O)NC2(CCOc3ccccc32)C1=O (centres undefined)"
classification = "No"

[[record]]
compound = "CCOC(=O)CSc1nc(C2CC2)cc(-c2ccc(F)cc2)c1C#N"
classification = "Yes"

[[record]]
compound = "O=C(CCc1ccccc1)Nc1nccs1"
classification = "No"

[[record]]
compound = "Cc1cc(/C=C2\\SC(=Nc3ccc(F)cc3)NC2=O)c(C)n1-c1ccc(S(N)(=O)=O)cc1"
classification = "No"

[[record]]
compound = "CC1CCN(c2ncnc3ccccc23)CC1"
classification = "No"

[[record]]
compound = "CC1CCCN(c2ccc(C(=O)NCc3ccccc3)cn2)C1 (centres undefined)"
classification = "Yes"

[[record]]
compound = "CC(C)(C)c1ccc(C(=O)NC(=S)NNC(=O)c2cccs2)cc1"
classification = "Yes"

[[record]]
compound = "O=c1c2ccc(Cl)cc2nc(-c2ccc([N+](=O)[O-])cc2)n1O"
classification = "Yes"

[[record]]
compound = "O=C(Cn1ncc2c(=O)oc3ccccc3c21)N1CCN(C(=O)c2ccco2)CC1"
classification = "No"

[[record]]
compound = "CC(C)(C)CC(C)(C)NC(=S)NC1CCN(Cc2ccccc2)CC1"
classification = "No"

[[record]]
compound = "OCCCCNCc1ccc(OCc2ccc(Cl)cc2Cl)cc1"
classification = "No"

